Source: the emibetuzumab library of Makowski et al. (2022)

B1: VH:VL chains; a variant is named by its letters at X, in order (parent)
chain 1: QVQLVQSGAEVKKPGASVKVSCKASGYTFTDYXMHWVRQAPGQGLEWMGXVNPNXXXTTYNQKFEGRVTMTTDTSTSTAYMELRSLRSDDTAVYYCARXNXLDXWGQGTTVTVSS
chain 2: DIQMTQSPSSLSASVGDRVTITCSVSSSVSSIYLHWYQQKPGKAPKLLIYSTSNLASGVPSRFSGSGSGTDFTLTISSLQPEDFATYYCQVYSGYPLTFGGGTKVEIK

- Variants of: B1
- test.description: yeast display scFab, FACS + sequencing
property: non-specific binding call

Example results:
DREEGFSV ... no binding
SEARSDAV ... no binding
VEGTGAGD ... no binding
VEEEDYSS ... binds
AATTDSGV ... no binding

Request the reported non-specific binding call associated with SRKKGDGS
binds
